The compounds below have reported GI50 for LOX IMVI.
Value expressed in µM; do not type the unit.

Known results for compounds:
C[C@]12CCc3nc(NCCc4ccccc4)sc3C1=CC[C@@H]1[C@@H]2CC[C@]2(C)C(=O)CC[C@@H]12 1.7
C[C@]12CCc3nc(Nc4ccc(OC(F)(F)F)cc4)sc3C1=CC[C@@H]1[C@@H]2CC[C@]2(C)C(=O)CC[C@@H]12 1.74
C[C@]12CCc3nc(Nc4ccc(F)cc4F)sc3C1=CC[C@@H]1[C@@H]2CC[C@]2(C)C(=O)CC[C@@H]12 1.71

Query: Item C[C@]12CCc3nc(-c4cccc(F)c4)sc3C1=CC[C@@H]1[C@@H]2CC[C@]2(C)C(=O)CC[C@@H]12 has what recorded GI50?
Response: 1.74

Query: I am curious: what GI50 value has been reported for C[C@]12CCc3nc(Nc4cccc(O)c4)sc3C1=CC[C@@H]1[C@@H]2CC[C@]2(C)C(=O)CC[C@@H]12 ?
Response: 1.67

Query: State the recorded GI50 for this entry: C[C@]12CCc3nc(Nc4ccccc4)sc3C1=CC[C@@H]1[C@@H]2CC[C@]2(C)C(=O)CC[C@@H]12
Response: 3.22

Query: // GI50 lookup, key: Cc1ccc(Nc2nc3c(s2)C2=CC[C@@H]4[C@H](CC[C@]5(C)C(=O)CC[C@@H]45)[C@@]2(C)CC3)c(C)c1
Response: 1.64

Query: Quick check: GI50 of C[C@]12CCc3nc(Nc4cccc(F)c4)sc3C1=CC[C@@H]1[C@@H]2CC[C@]2(C)C(=O)CC[C@@H]12 ?
Response: 1.67

----------
This listing pairs molecules with measured TGI (total growth inhibition).
- Tested on: SK-MEL-28
- ASSAY_REMARKS: NCI DTP 60 cell line five-concentration test, melanoma panel
- Format: cell-based
- CONDITION_CONTEXT: SK-MEL-28 melanoma cell line
Give the quantity in µM, number only.

MOLECULE	TGT	TGI (total growth inhibition), µM
C[C@]12CCc3nc(-c4cccc(F)c4)sc3C1=CC[C@@H]1[C@@H]2CC[C@]2(C)C(=O)CC[C@@H]12 [Compound 8]	SK-MEL-28	4.07
C[C@]12CCc3nc(Nc4cccc(O)c4)sc3C1=CC[C@@H]1[C@@H]2CC[C@]2(C)C(=O)CC[C@@H]12 [Compound 4]	SK-MEL-28	3.31
C[C@]12CCc3nc(NCCc4ccccc4)sc3C1=CC[C@@H]1[C@@H]2CC[C@]2(C)C(=O)CC[C@@H]12 [Compound 1]	SK-MEL-28	18.9

We now examine a further molecule.
Query: Query the reported TGI (total growth inhibition) for SK-MEL-28; item: C[C@]12CCc3nc(Nc4ccc(OC(F)(F)F)cc4)sc3C1=CC[C@@H]1[C@@H]2CC[C@]2(C)C(=O)CC[C@@H]12 [Compound 3]
Response: 7.98

----------
- Tested on: SK-MEL-28
- ASSAY_REMARKS: NCI DTP 60 cell line five-concentration test, melanoma panel
- Type: cell-based
- CONDITION_CONTEXT: Homo sapiens, SK-MEL-28, SK-MEL-28 melanoma cell line
QUANTITY: GI50 (µM)
Numeric answer only, unit µM assumed.

Answered cases to consult:
MOLECULE	TGT	OUTPUT_UNIT	GI50
C[C@]12CCc3nc(-c4cccc(F)c4)sc3C1=CC[C@@H]1[C@@H]2CC[C@]2(C)C(=O)CC[C@@H]12 [Compound 8]	SK-MEL-28	µM	1.53
C[C@]12CCc3nc(Nc4ccccc4)sc3C1=CC[C@@H]1[C@@H]2CC[C@]2(C)C(=O)CC[C@@H]12 [Compound 2]	SK-MEL-28	µM	20.5
Cc1ccc(Nc2nc3c(s2)C2=CC[C@@H]4[C@H](CC[C@]5(C)C(=O)CC[C@@H]45)[C@@]2(C)CC3)c(C)c1 [Compound 7]	SK-MEL-28	µM	2.31

Query: Recorded GI50 of C[C@]12CCc3nc(NCCc4ccccc4)sc3C1=CC[C@@H]1[C@@H]2CC[C@]2(C)C(=O)CC[C@@H]12 [Compound 1] , please.
Response: 3.37

----------
- Tested on: LOX IMVI
- ASSAY_REMARKS: NCI DTP 60 cell line five-concentration test, melanoma panel
- Assay type: cell-based
- CONDITION_CONTEXT: Homo sapiens, LOX IMVI, read-out: LC50 (50% lethal concentration)
QUANTITY: LC50 (50% lethal concentration) (µM)
Respond with the bare value in µM.

MOLECULE	VALUE_MEASURED
C[C@]12CCc3nc(NCCc4ccccc4)sc3C1=CC[C@@H]1[C@@H]2CC[C@]2(C)C(=O)CC[C@@H]12 [Compound 1]	5.91
C[C@]12CCc3nc(Nc4cccc(O)c4)sc3C1=CC[C@@H]1[C@@H]2CC[C@]2(C)C(=O)CC[C@@H]12 [Compound 4]	5.94
C[C@]12CCc3nc(Nc4ccccc4)sc3C1=CC[C@@H]1[C@@H]2CC[C@]2(C)C(=O)CC[C@@H]12 [Compound 2]	48.1

# input for lookup
Query: So what's the measured LC50 (50% lethal concentration) for this one? C[C@]12CCc3nc(Nc4cccc(F)c4)sc3C1=CC[C@@H]1[C@@H]2CC[C@]2(C)C(=O)CC[C@@H]12 [Compound 5]
Response: 6.16

----------
- System: SK-MEL-28
- ASSAY_REMARKS: NCI DTP 60 cell line five-concentration test, melanoma panel
- Assay type: cell-based
- CONDITION_CONTEXT: Homo sapiens, SK-MEL-28, SK-MEL-28 melanoma cell line
Reported GI50 values for a set of molecules

// solved cases for GI50 follow
C[C@]12CCc3nc(Nc4cccc(O)c4)sc3C1=CC[C@@H]1[C@@H]2CC[C@]2(C)C(=O)CC[C@@H]12 ≥ 1.32 µM
C[C@]12CCc3nc(Nc4cccc(F)c4)sc3C1=CC[C@@H]1[C@@H]2CC[C@]2(C)C(=O)CC[C@@H]12 ≥ 1.32 µM
C[C@]12CCc3nc(Nc4ccc(F)cc4F)sc3C1=CC[C@@H]1[C@@H]2CC[C@]2(C)C(=O)CC[C@@H]12 > 100 µM

Moving on to the next molecule.
Query: Fill in: GI50 of C[C@]12CCc3nc(Nc4ccc(OC(F)(F)F)cc4)sc3C1=CC[C@@H]1[C@@H]2CC[C@]2(C)C(=O)CC[C@@H]12 is ___
Response: ≥ 1.32 µM

----------
- Tested on: LOX IMVI
- ASSAY_REMARKS: NCI DTP 60 cell line five-concentration test, melanoma panel
- Assay type: cell-based
- CONDITION_CONTEXT: Homo sapiens, LOX IMVI, read-out: LC50 (50% lethal concentration)
QUANTITY: LC50 (50% lethal concentration) (µM)
Numbers only here, please. The scale is µM.

C[C@]12CCc3nc(-c4cccc(F)c4)sc3C1=CC[C@@H]1[C@@H]2CC[C@]2(C)C(=O)CC[C@@H]12 6.47

Query: Using the record for Cc1ccc(Nc2nc3c(s2)C2=CC[C@@H]4[C@H](CC[C@]5(C)C(=O)CC[C@@H]45)[C@@]2(C)CC3)c(C)c1 , report its LC50 (50% lethal concentration).
Response: 5.96

Query: Dear colleague, I am looking for the recorded LC50 (50% lethal concentration) of the following molecule: C[C@]12CCc3nc(Nc4ccc(OC(F)(F)F)cc4)sc3C1=CC[C@@H]1[C@@H]2CC[C@]2(C)C(=O)CC[C@@H]12
Response: 5.82
